tgt: human ether-à-go-go-related gene (hERG) potassium channel (human, UniProt Q12809)
Sequence (Q12809 whole entry, looked up): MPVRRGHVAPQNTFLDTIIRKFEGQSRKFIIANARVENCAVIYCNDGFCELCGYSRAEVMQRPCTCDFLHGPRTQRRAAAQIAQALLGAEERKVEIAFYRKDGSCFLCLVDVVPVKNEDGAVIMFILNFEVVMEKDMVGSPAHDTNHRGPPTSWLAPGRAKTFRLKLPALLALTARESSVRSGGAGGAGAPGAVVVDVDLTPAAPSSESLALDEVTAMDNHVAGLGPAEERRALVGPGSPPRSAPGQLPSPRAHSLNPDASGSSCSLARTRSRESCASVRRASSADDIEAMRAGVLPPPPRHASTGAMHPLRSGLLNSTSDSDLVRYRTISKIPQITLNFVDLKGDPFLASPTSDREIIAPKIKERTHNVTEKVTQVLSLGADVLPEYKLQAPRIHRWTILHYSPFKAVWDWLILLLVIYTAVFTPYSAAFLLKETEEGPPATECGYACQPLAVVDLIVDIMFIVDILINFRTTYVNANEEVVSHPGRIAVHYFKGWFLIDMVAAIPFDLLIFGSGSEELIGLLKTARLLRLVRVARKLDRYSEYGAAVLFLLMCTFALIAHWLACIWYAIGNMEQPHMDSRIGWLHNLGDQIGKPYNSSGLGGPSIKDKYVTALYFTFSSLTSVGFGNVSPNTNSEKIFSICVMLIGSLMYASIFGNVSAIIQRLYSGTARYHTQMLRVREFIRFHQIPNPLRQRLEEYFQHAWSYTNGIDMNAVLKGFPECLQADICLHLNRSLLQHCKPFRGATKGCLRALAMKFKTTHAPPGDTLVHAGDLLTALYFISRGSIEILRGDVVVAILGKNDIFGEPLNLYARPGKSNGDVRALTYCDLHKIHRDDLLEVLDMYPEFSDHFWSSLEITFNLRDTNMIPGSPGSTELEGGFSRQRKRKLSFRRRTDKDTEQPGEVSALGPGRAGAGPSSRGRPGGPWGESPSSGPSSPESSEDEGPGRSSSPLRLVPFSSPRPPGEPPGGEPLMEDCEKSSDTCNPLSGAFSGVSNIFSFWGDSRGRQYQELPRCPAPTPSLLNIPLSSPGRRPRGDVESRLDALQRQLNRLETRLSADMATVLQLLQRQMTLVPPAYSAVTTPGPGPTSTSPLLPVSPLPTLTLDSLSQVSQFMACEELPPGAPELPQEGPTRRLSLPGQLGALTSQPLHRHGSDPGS
assay details: primary screen, population patch clamp on CHO cells stably expressing hERG; higher = less effect of the substance;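 note: peak tail current of the secondary pulse compared with the same well before compound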
In all, about 310,000 compounds went through this assay and about 14,000 (4.5%) showed an effect of 50% or more. The effect is printed as a negative number. The list comes from a sample in which strong results are over-represented; it also holds close analogues and randomly drawn compounds.
# hERG current change (%, negative = inhibition) at 10uM annotations
measured attribute: hERG current change (%, negative = inhibition) at 10uM (%)

{"compound": "CCOC(=O)CSc1ncnc2c1sc1nc(N3CCOCC3)c3c(c12)CCCC3", "observed result": 12.7}
{"compound": "CN1CCC(N(C)C(=O)c2sc3cc(F)ccc3c2Cl)CC1", "observed result": -47.9}
{"compound": "COc1ccccc1Nc1nc(N)nc(CSCCO)n1", "observed result": 15}
{"compound": "Cc1cccc(Nc2nc(N)nc(CN3CCC(C(N)=O)CC3)n2)c1C", "observed result": 17.5}
{"compound": "CCOC(=O)c1c(C)nsc1NCc1ccccc1", "observed result": 5.94}
{"compound": "O=C(CSc1c2c(nc3cc(Cl)ccc13)CCCC2)NCCN1CCOCC1", "observed result": 3.58}
{"compound": "CCSc1ncnc2c(C#N)c3n(c12)CCCCC3", "observed result": -23.8}
{"compound": "COc1ccccc1Nc1nc(N)nc(CSC(=S)N2CC(C)CC(C)C2)n1 (centres unmarked)", "observed result": -9.46}
{"compound": "COc1ccccc1Nc1nc(N)nc(CN2CC(C)CC(C)C2)n1 (centres unmarked)", "observed result": -73.8}
{"compound": "Cc1c(Cl)cccc1Nc1nc(N)nc(CN2CCc3ccccc3C2)n1", "observed result": -33}
{"compound": "COc1ccccc1Nc1nc(N)nc(CN2CCOCC2)n1", "observed result": 10.1}
